experiment: qHTS assay to identify small molecule agonists of the estrogen receptor alpha (ER-alpha) signaling pathway in the presence of an antagonist - cell viability counter screen (AID 1259386); details: VM7Luc4E2 viability, CellTiter-Fluor fluorescence, 22 h; series mostly up to 92.4 µM;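 also: cells exposed to compounds for 22 h at 37 °C before the viability read; nearly all actives have a fitted effect of over 30% in size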
Results filed as inconclusive are left out. The source made the active and inactive calls. Calls follow the shape of the dose curve; as a rule, active = well fitted cell-killing curve with a large enough effect in the repeat runs; inconclusive = weak or mixed curves, or effect the other way; inactive = no such curve, though single readings can be large or run the other way.
The reply should name one outcome from y for active, n for inactive

| compound | category |
| --- | --- |
| CC(C)Cc1ccc(CC(=O)O)cc1 | n |
| CC1=CC[C@@]23C[C@@H]1C(C)(C)[C@@H]2CC[C@H]3C | n |
| CC(C(=O)O)c1ccc(C(=O)c2cccs2)cc1 (stereo unspecified) | n |

// param item: `CCC(CO)(CO)[N+](=O)[O-]` ; yields the recorded call
n

// param item: `CCN(CC)C(=O)/C(C#N)=C/c1cc(O)c(O)c([N+](=O)[O-])c1` ; yields the recorded call
y

// param item: `FC(F)(F)C(F)(F)C(F)(F)C(F)(F)CCI` ; yields the recorded call
n

====

assay: qHTS assay to test for compound auto fluorescence at 535 nm (green) in HepG2 cell free culture (AID 720686); details: Cell-free medium, green autofluorescence 485/535 nm; series mostly up to 91.3 µM
Calls of active or inactive are those of the source. Calls follow the shape of the dose curve; as a rule, active = well fitted curve in the direction sought with a large enough effect in the repeat runs; inconclusive = weak or mixed curves; inactive = flat fitted curve, though single readings scatter.
observationType: fluorescence, % of fluorescein control

| lineNotation | endpointValue |
| --- | --- |
| COc1ccc(C2C(=O)c3ccccc3C2=O)cc1 | inactive |
| O=[N+]([O-])C1(Br)COCOC1 | inactive |
| O=C(O)c1cc(Cl)cc(Cl)c1O | inactive |

====

experiment: qHTS assay to identify small molecule antagonists of the peroxisome proliferator-activated receptor gamma (PPARg) signaling pathway - cell viability counter screen (AID 743194); conditions: PPARg-bla HEK293H viability, CellTiter-Glo luminescence, 17 h, co-treated with 50 nM rosiglitazone; series mostly up to 62.6 µM; also: nearly all actives have a fitted effect of over 55% in size
Records with an inconclusive call do not appear. Active and inactive are the calls of the source. Calls follow the shape of the dose curve; as a rule, active = well fitted cell-killing curve with a large enough effect in the repeat runs; inconclusive = weak or mixed curves, or effect the other way; inactive = no such curve, though single readings can be large or run the other way.
The reply should name one outcome from Yes for active, No for inactive

| molecule | category |
| --- | --- |
| CC(CN(CCN(CC(C)OCCO)CC(C)OCCO)CC(C)OCCO)OCCO (centres undefined) | Yes |
| CC1C(C)(C)C2=C(C(=O)CCC2)C1(C)C (centres undefined) | No |
| OCC(CO)n1cnc(-c2ccc(F)cc2)c1-c1ccnc(Oc2ccccc2)n1 | No |
| CC(C)N(C)C | No |
| CCOCCC(=O)OCC | No |

// param item: `CSSc1ccoc1C` ; yields the recorded call
No

// param item: `CCCCCCCC(=O)OCCCCCC` ; yields the recorded call
No

// param item: `C/C(C=O)=C\c1ccccc1` ; yields the recorded call
No

====

biological target: Aromatase (Homo sapiens); experiment: qHTS assay to identify aromatase inhibitors (AID 743083); conditions: MCF-7 aro ERE, testosterone-driven ERE luciferase, 24 h; series mostly up to 70.3 µM; also: nearly all actives have a fitted effect of over 55% in size
Results filed as inconclusive are left out. Activity calls are given as the source filed them. The call rests on the fitted dose curve; in most records, active means well fitted inhibition curve with a large enough effect in the repeat runs; inconclusive means weak or mixed curves; inactive means no such curve, though single readings can be large or run the other way.
The reply should name one outcome from active, inactive

Answered examples (3):
| compound | category |
| --- | --- |
| Cc1c[nH]c2ccccc12 | inactive |
| COc1ccc(-c2cc(=S)ss2)cc1 | inactive |
| CCCCCCCC/C=C\CCCCCCCC(=O)OCCO | inactive |

// param item: `O=c1[nH][nH]c(=O)c2cc([N+](=O)[O-])ccc12` ; yields the recorded call
inactive

// param item: `O=C(O)CCCc1c[nH]c2ccccc12` ; yields the recorded call
inactive

====

target: Cytochrome P450 1A2 (Homo sapiens) (UniProt P05177); experiment: Cytochrome P450 Family 1 Subfamily A Member 2 (CYP1A2) small molecule antagonists: luciferase reporter qHTS assay (AID 1671199); settings: P450-Glo CYP1A2 enzyme, luciferin luminescence, 1 h; series mostly up to 115 µM; also: nearly all actives have a fitted effect of over 50% in size
Sequence (P05177 whole entry, looked up): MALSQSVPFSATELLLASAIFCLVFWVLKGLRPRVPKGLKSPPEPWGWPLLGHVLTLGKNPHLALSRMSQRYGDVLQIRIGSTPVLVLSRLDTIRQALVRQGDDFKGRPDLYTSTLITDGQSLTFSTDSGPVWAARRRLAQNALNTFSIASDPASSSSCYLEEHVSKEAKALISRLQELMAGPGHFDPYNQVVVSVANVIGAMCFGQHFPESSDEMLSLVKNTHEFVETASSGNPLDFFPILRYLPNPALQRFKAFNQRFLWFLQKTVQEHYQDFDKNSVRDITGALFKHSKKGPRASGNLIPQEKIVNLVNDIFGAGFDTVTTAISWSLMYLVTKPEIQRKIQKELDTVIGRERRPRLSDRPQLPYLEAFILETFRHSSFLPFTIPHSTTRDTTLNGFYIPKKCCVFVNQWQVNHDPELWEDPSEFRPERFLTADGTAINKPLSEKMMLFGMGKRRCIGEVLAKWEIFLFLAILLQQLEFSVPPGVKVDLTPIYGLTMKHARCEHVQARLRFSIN
Inconclusive results are not listed. Calls of active or inactive are those of the source. Calls come from the whole dose curve; as a rule, active = well fitted inhibition curve with a large enough effect in the repeat runs; inconclusive = weak or mixed curves; inactive = no such curve, though single readings can be large or run the other way.
The reply should name one outcome from Y for active, N for inactive

| compound | testedOn | category |
| --- | --- | --- |
| SCCc1cnccn1 | Cytochrome P450 1A2 (Homo sapiens) (UniProt P05177) | Y |
| Nc1ccc(S(=O)(=O)NCc2ccccc2)cc1 | Cytochrome P450 1A2 (Homo sapiens) (UniProt P05177) | N |

// param item: `CC(C)C(=O)OCCOc1ccccc1` ; yields the recorded call
Y

// param item: `CC(C)c1ccc(C(=O)N=C(N)N)cc1S(C)(=O)=O` ; yields the recorded call
Y

// param item: `O=C(c1ccccc1)c1ccc(O)cc1` ; yields the recorded call
Y

// param item: CC(C)(C)C(O)/C=C/c1ccc2c(c1)OCO2 (stereo unspecified) ; yields the recorded call
Y

// param item: `CC(C)(C(=O)c1cccnc1)c1cccnc1` ; yields the recorded call
N

// param item: CCOC(=O)C(C)O (stereo unspecified) ; yields the recorded call
N

====

molecular target: Cytochrome P450 2C19 (Homo sapiens) (UniProt P33261); experiment: Cytochrome P450 Family 2 Subfamily C Member 19 (CYP2C19) small molecule antagonists: luciferase reporter qHTS assay (AID 1671197); conditions: P450-Glo CYP2C19 enzyme, luciferin luminescence, 1 h; series mostly up to 115 µM; also: nearly all actives have a fitted effect of over 65% in size; also: potency is read from the fitted curve at half-maximal effect
Sequence (P33261 whole entry, looked up): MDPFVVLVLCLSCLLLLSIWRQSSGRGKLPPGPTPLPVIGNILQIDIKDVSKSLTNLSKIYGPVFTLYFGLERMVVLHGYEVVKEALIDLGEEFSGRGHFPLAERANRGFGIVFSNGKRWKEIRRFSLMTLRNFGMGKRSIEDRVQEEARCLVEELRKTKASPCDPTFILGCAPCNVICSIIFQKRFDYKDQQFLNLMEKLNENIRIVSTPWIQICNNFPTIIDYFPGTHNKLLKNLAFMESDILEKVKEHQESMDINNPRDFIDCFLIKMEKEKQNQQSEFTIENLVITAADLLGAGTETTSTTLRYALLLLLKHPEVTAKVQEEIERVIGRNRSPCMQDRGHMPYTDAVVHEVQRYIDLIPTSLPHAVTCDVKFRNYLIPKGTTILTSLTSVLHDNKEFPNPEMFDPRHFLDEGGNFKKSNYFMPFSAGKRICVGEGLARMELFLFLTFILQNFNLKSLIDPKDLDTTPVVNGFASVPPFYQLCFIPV
Results filed as inconclusive are left out. The source made the active and inactive calls. Calls follow the shape of the dose curve; as a rule, active = well fitted inhibition curve with a large enough effect in the repeat runs; inconclusive = weak or mixed curves; inactive = no such curve, though single readings can be large or run the other way.
observationType: Potency

# count of solved cases: 4
| molecule | Potency |
| --- | --- |
| CC(=O)NNC(C)=O | inactive |
| CC(C)OC(=O)c1ccccc1C(=O)OC(C)C | 79.6 µM (active) |
| Cc1ccc2nc(N)[nH]c(=O)c2c1Sc1ccncc1 | 1.55 µM (active) |
| COC(CC(C)CCCC(C)(C)O)OC (configuration not stated) | 35.6 µM (active) |

Request the reported Potency associated with `Nc1ccn([C@H]2CS[C@@H](CO)O2)c(=O)n1`
inactive

Request the reported Potency associated with CCCCCCCCCCCCCC(=O)OCC(O)CO (configuration not stated)
35.6 µM (active)

Request the reported Potency associated with COC(=O)C1=C(C)NC(C)=C(C(=O)OC(C)(C)CN(C)CCC(c2ccccc2)c2ccccc2)C1c1cccc([N+](=O)[O-])c1 (configuration not stated)
1.38 µM (active)

Request the reported Potency associated with `CC(=O)OCCC1CCCCC1`
inactive

Request the reported Potency associated with `CC(C)(C(=O)c1cccnc1)c1cccnc1`
inactive

Request the reported Potency associated with `Oc1cccc2[nH]ccc12`
inactive

Request the reported Potency associated with C1=CCC2CC=CC2C1 (configuration not stated)
70.9 µM (active)

Request the reported Potency associated with `Cc1cc(CCCOc2c(C)cc(-c3noc(C(F)(F)F)n3)cc2C)on1`
21.9 µM (active)

====

biological target: Glucocorticoid receptor (Homo sapiens) (UniProt P04150); experiment: qHTS assay to identify small molecule agonists of the glucocorticoid receptor (GR) signaling pathway (AID 720691); settings: GR-bla HeLa, beta-lactamase reporter ratio, 18 h; series mostly up to 62.4 µM
Sequence (P04150 whole entry, looked up): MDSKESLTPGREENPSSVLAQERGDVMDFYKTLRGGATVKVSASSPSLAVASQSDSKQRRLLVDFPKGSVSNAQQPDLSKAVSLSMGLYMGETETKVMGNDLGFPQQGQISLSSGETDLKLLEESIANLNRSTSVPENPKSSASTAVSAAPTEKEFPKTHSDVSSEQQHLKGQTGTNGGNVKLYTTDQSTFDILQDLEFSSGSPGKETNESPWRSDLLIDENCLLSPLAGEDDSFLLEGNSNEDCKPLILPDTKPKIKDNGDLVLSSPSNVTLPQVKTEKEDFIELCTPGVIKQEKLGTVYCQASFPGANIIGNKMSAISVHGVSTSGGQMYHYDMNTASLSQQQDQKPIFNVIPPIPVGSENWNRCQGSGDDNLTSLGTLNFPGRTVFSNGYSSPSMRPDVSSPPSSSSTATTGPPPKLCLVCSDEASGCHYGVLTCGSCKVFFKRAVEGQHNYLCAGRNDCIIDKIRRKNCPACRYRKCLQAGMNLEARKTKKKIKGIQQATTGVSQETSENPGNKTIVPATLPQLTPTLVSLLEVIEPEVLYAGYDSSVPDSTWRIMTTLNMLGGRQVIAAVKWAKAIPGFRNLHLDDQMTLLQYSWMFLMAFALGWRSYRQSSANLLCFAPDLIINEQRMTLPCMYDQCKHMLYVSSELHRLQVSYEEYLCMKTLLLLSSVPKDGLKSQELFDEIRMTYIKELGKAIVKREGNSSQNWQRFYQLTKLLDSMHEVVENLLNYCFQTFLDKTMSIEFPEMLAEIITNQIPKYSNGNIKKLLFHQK
Records with an inconclusive call do not appear. Calls of active or inactive are those of the source. Calls follow the shape of the dose curve; as a rule, active = well fitted activation curve with a large enough effect in the signal ratio in the repeat runs (not every such curve was filed as active); inconclusive = weak or mixed curves, or effect the other way; inactive = no such curve, though single readings can be large or run the other way; the % refers to the signal ratio.

| compound | outcome |
| --- | --- |
| C=CC(=O)NC(C)C | inactive |
| CC(C)(C)NCC(O)COc1cccc2c1C[C@H](O)[C@H](O)C2 (stereo partly drawn) | inactive |
| O=C(O)CCCc1c[nH]c2ccccc12 | inactive |

====

Assay: qHTS assay to identify small molecule antagonists of the peroxisome proliferator-activated receptor delta (PPARd) signaling pathway - cell viability counter screen (AID 743213); also: nearly all actives have a fitted effect of over 50% in size
Conditions: PPARd-bla HEK293H viability, CellTiter-Glo luminescence, 17 h; series mostly up to 62 µM
From the text: U.S. Tox21 Program National Center for Advancing Translational Sciences [NCATS] NIH Chemical Genomics Center [NCGC] U.S. Environmental Protection Agency [EPA] National Institutes of Environmental Health Sciences [NIEHS] National Toxicology Program [NTP] U.S. Food and Drug Administration [FDA] […]
Records with an inconclusive call do not appear. Active and inactive are the calls of the source. Calls follow the shape of the dose curve; as a rule, active = well fitted cell-killing curve with a large enough effect in the repeat runs; inconclusive = weak or mixed curves; inactive = no such curve, though single readings can be large or run the other way.
observationType: outcome

| molecule | outcome |
| --- | --- |
| CCO[Si](C)(CCCOCC1CO1)OCC (configuration not stated) | inactive |
| Cc1cn([C@H]2C[C@H](F)[C@@H](CO)O2)c(=O)[nH]c1=O | inactive |
| Nc1ccc(NC(=O)c2ccc(N)cc2)cc1 | inactive |
| COC(=O)Nc1nc2ccc(C(=O)C3CC3)cc2[nH]1 | inactive |
| O=C1CC[C@@H](C(=O)O)N1 | inactive |

Request the reported outcome associated with `COc1cc(C(C)=O)ccc1OCCCN1CCC(c2noc3cc(F)ccc23)CC1`
inactive

Request the reported outcome associated with `COc1ccc(N)c([N+](=O)[O-])c1`
inactive

====

target: Cytochrome P450 1A2 (Homo sapiens); assay: Cytochrome P450 Family 1 Subfamily A Member 2 (CYP1A2) small molecule antagonists: luciferase reporter qHTS assay (AID 1671199); settings: P450-Glo CYP1A2 enzyme, luciferin luminescence, 1 h; series mostly up to 115 µM; also: nearly all actives have a fitted effect of over 50% in size
Records with an inconclusive call do not appear. Activity calls are given as the source filed them. Calls come from the whole dose curve; as a rule, active = well fitted inhibition curve with a large enough effect in the repeat runs; inconclusive = weak or mixed curves; inactive = no such curve, though single readings can be large or run the other way.
The reply should name one outcome from active, inactive

Answered examples (3):
| molecule | category |
| --- | --- |
| CN=C(N)NC(=O)Nc1c(C)cccc1C | inactive |
| CO[C@@H]1[C@@H](OC)[C@H](C)[C@@](O)(CC(=O)O)O[C@H]1[C@H](C)[C@H]1O[C@@]2(CC[C@@](C)([C@H]3CC[C@@](C)([C@@H]4O[C@@H]([C@H]5O[C@](C)(O)[C@H](C)C[C@@H]5C)C[C@@H]4OC4C[C@H](OC)[C@@H](OC)[C@H](C)O4)O3)O2)C[C@H](O)[C@H]1C (some centres undefined) | inactive |
| CCN(CC)c1cccc(O)c1 | active |

Now look at this entry.
// param item: `CC(=O)N[C@@H](Cc1ccc(O)cc1)C(=O)O` ; yields the recorded call
inactive
